biological target: SMARCA4 (Homo sapiens); assay: HiBit assay in engineered HT1080 CRISPR knock-in cell, 6 hrs (B series), SMARCA4; format: cell-based; conditions: HT-1080, HT1080 CRISPR knock-in cells, 6 hrs incubation; read-out: SMARC A4 HT1080 HiBit Dmax(%)
Sequence (P51532 whole entry): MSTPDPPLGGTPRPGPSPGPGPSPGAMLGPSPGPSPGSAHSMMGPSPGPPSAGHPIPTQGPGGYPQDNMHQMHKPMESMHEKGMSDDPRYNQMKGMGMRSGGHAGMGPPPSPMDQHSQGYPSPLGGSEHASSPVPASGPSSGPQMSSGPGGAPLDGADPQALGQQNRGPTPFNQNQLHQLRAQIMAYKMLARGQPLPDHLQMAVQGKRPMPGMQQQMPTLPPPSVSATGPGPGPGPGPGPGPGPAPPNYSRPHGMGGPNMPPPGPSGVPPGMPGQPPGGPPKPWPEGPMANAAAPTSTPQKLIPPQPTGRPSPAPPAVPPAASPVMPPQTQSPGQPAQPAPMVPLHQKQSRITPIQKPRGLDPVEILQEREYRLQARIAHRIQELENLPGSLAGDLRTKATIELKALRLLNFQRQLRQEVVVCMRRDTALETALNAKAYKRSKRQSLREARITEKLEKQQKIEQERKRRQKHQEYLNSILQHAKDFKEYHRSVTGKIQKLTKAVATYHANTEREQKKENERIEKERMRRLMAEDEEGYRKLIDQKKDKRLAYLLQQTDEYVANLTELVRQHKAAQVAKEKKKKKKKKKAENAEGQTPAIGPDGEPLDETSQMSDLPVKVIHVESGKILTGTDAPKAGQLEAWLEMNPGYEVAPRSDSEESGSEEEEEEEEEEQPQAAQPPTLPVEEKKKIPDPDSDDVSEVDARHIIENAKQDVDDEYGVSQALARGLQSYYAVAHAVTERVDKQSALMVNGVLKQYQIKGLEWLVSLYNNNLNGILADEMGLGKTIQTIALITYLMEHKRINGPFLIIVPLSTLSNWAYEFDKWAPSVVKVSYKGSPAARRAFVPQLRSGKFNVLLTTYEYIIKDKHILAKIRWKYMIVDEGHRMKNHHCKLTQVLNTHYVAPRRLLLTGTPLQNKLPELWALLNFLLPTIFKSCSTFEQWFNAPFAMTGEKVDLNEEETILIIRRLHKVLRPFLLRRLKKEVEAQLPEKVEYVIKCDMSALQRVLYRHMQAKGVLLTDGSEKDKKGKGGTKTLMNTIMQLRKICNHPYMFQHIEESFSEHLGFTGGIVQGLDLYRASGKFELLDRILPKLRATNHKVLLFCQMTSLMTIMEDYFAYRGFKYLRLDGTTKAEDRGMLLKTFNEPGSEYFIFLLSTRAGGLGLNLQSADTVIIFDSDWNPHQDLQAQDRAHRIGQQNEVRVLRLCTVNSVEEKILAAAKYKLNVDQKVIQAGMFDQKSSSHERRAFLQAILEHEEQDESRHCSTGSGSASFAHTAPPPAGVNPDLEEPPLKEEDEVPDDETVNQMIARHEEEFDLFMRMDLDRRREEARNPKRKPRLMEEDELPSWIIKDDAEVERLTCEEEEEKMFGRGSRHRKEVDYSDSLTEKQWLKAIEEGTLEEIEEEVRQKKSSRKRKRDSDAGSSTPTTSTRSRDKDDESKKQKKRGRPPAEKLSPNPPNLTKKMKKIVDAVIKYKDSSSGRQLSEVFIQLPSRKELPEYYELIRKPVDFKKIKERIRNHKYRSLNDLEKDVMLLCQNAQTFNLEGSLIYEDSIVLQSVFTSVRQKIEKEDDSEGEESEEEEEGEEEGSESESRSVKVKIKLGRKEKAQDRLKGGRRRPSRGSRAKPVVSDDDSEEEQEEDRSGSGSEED
experimental.endpoint: Dmax

[
  {
    "compound": "Cc1ncsc1-c1ccc([C@H](C)NC(=O)[C@@H]2C[C@@H](O)CN2C(=O)[C@@H](c2cc(OC3CCC(CN4CCC(c5ccc6c(c5)C(C)(C)c5nc(=O)c7c(Cl)cccc7n5-6)CC4)CC3)no2)C(C)C)cc1 (some centres unmarked)",
    "Dmax": "> 90%"
  },
  {
    "compound": "C[C@H](NC(=O)[C@@H]1C[C@@H](O)CN1C(=O)[C@@H](NC(=O)[C@H]1CC[C@H](CN2CCC(c3ccc4c(c3)C(C)(C)c3nc(=O)c5c(Cl)cccc5n3-4)CC2)CC1)C(C)(C)C)c1ccc(-c2ncnn2C)cc1",
    "Dmax": "< 50%"
  },
  {
    "compound": "Cc1ncoc1-c1ccc([C@H](C)NC(=O)[C@@H]2C[C@@H](O)CN2C(=O)[C@@H](n2cc([C@H]3CC[C@H](CN4CCN(c5ccc6c(c5)-n5c(nc(=O)c7c(Cl)cccc75)C6(C)C)CC4)CC3)nn2)C(C)(C)C)cc1",
    "Dmax": "50 to 69%"
  }
]

So what's the measured Dmax for this one? Cc1ncsc1-c1ccc([C@H](C)NC(=O)[C@@H]2C[C@@H](O)CN2C(=O)[C@H](C(C)C)n2cc([C@H]3CC[C@H](CN4CCC(c5ccc6c(c5)-n5c(nc(=O)c7c(Cl)cccc75)C6(C)C)CC4)CC3)nn2)cc1 70 to 90%

Please do the same for Cc1ncsc1-c1ccc([C@H](CN2CCOCC2)NC(=O)[C@@H]2C[C@@H](O)CN2C(=O)C(c2cc(N3CCC(CN4CCC(c5ccc6c(c5)-n5c(nc(=O)c7c(Cl)cccc75)C6(C)C)CC4)CC3)no2)C(C)C)cc1 (some centres unmarked) as well. 70 to 90%

Please do the same for Cc1ncsc1-c1ccc([C@H](C)NC(=O)[C@@H]2C[C@@H](O)CN2C(=O)C(c2cc(N3CCC(c4ccc5c(c4)C(C)(C)c4nc(=O)c6c(Cl)cccc6n4-5)CC3)no2)C(C)C)cc1 (some centres unmarked) as well. 70 to 90%

Please do the same for Cc1cc(C(C(=O)N2C[C@H](O)C[C@H]2C(=O)N[C@@H](C)c2ccc(-c3scnc3C#CCN3CCC(c4cccc5c4C(C)(C)c4nc(=O)c6c(Cl)cccc6n4-5)CC3)cc2)C(C)C)on1 (some centres unmarked) as well. < 50%
